Test system: Streptococcus pyogenes
Test: Antimicrobial activity against ciprofloxacin-nonsusceptible Streptococcus pyogenes isolates by agar dilution method
Assay type: functional
Readout label: MIC50

Here are 2 compounds together with their reported answers.
Compound structure string: CC1(C)S[C@@H]2[C@H](NC(=O)Cc3ccccc3)C(=O)N2[C@H]1C(=O)O
Assay value: ≤ 0.03 µg/mL

Compound structure string: COc1c(N2C[C@@H]3CCCN[C@@H]3C2)c(F)cc2c(=O)c(C(=O)O)cn(C3CC3)c12
Assay value: 0.5 µg/mL

Please list MIC50 recorded for the compound "CC[C@H]1OC(=O)[C@H](C)[C@@H](O[C@H]2C[C@@](C)(OC)[C@@H](O)[C@H](C)O2)[C@H](C)[C@@H](O[C@@H]2O[C@H](C)C[C@H](N(C)C)[C@H]2O)[C@](C)(O)C[C@@H](C)C(=O)[C@H](C)[C@@H](O)[C@]1(C)O" ≤ 0.25 µg/mL

Answer with the recorded MIC50 for the compound listed here: "C[C@H]1COc2c(N3CCN(C)CC3)c(F)cc3c(=O)c(C(=O)O)cn1c23.C[C@H]1COc2c(N3CCN(C)CC3)c(F)cc3c(=O)c(C(=O)O)cn1c23.O" 2 µg/mL

---

System: Streptococcus pyogenes
Experiment: Antimicrobial activity against ciprofloxacin-nonsusceptible Streptococcus pyogenes isolates assessed as resistant isolates by agar dilution method
Assay type: functional
Recorded Activity, one value per entry.

Worked examples follow.
Compound structure string: CN[C@H](CC(C)C)C(=O)N[C@H]1C(=O)N[C@@H](CC(N)=O)C(=O)N[C@H]2C(=O)N[C@H]3C(=O)N[C@H](C(=O)N[C@H](C(=O)O)c4cc(O)cc(O)c4-c4cc3ccc4O)[C@H](O)c3ccc(c(Cl)c3)Oc3cc2cc(c3O[C@@H]2O[C@H](CO)[C@@H](O)[C@H](O)[C@H]2O[C@H]2C[C@](C)(N)[C@H](O)[C@H](C)O2)Oc2ccc(cc2Cl)[C@H]1O
Target system: Streptococcus pyogenes
Assay value: 0%

Compound structure string: CCC[C@@H]1C[C@@H](C(=O)N[C@@H]([C@H]2O[C@H](SC)[C@H](O)[C@@H](O)[C@H]2O)[C@H](C)Cl)N(C)C1
Target system: Streptococcus pyogenes
Assay value: 1.5%

Give the measured Activity for "CO/N=C(\C(=O)N[C@@H]1C(=O)N2C(C(=O)O)=C(COC(C)=O)CS[C@H]12)c1csc(N)n1" 0%

Respond only with Activity recorded for "CC1(C)S[C@@H]2[C@H](NC(=O)Cc3ccccc3)C(=O)N2[C@H]1C(=O)O" 0%

Complete the entry with Activity for "C[C@H]1COc2c(N3CCN(C)CC3)c(F)cc3c(=O)c(C(=O)O)cn1c23.C[C@H]1COc2c(N3CCN(C)CC3)c(F)cc3c(=O)c(C(=O)O)cn1c23.O" 0%

---

System: Streptococcus pyogenes
Experiment: Antimicrobial activity against ciprofloxacin-nonsusceptible Streptococcus pyogenes isolates assessed as resistant isolates by agar dilution method
Format: functional
Readout label: Activity (%)
Your answer should be a plain number; it is taken to be in %.

Compound structure string: CN(C)[C@@H]1C(O)=C(C(N)=O)C(=O)[C@@]2(O)C(O)=C3C(=O)c4c(O)cccc4[C@@](C)(O)[C@H]3C[C@@H]12
Units of measure: %
Assay value: 1.5
//
Compound structure string: CC[C@H]1OC(=O)[C@H](C)[C@@H](O[C@H]2C[C@@](C)(OC)[C@@H](O)[C@H](C)O2)[C@H](C)[C@@H](O[C@@H]2O[C@H](C)C[C@H](N(C)C)[C@H]2O)[C@](C)(O)C[C@@H](C)C(=O)[C@H](C)[C@@H](O)[C@]1(C)O
Units of measure: %
Assay value: 1.5

As a next step, examine the molecule that follows.
Under Streptococcus pyogenes: report Activity of "CC1(C)S[C@@H]2[C@H](NC(=O)[C@H](N)c3ccccc3)C(=O)N2[C@H]1C(=O)O" . 0

---

System: Streptococcus pyogenes
Test: Antimicrobial activity against ciprofloxacin-nonsusceptible Streptococcus pyogenes isolates assessed as susceptible isolates by agar dilution method
Type: functional
We begin with a simple list: items and their reported Activity.
Reply with the number and its unit after it.

Read the entry "CO/N=C(\C(=O)N[C@@H]1C(=O)N2C(C(=O)O)=C(COC(C)=O)CS[C@H]12)c1csc(N)n1" and write its reported Activity. 100%

Please give the documented Activity of "CC[C@H]1OC(=O)[C@H](C)[C@@H](O[C@H]2C[C@@](C)(OC)[C@@H](O)[C@H](C)O2)[C@H](C)[C@@H](O[C@@H]2O[C@H](C)C[C@H](N(C)C)[C@H]2O)[C@](C)(O)C[C@@H](C)C(=O)[C@H](C)[C@@H](O)[C@]1(C)O" 98.5%

Give the reported value of Activity for this record: "CN(C)[C@@H]1C(O)=C(C(N)=O)C(=O)[C@@]2(O)C(O)=C3C(=O)c4c(O)cccc4[C@@](C)(O)[C@H]3C[C@@H]12" 98.5%

Supply measured Activity of "C[C@H]1COc2c(N3CCN(C)CC3)c(F)cc3c(=O)c(C(=O)O)cn1c23.C[C@H]1COc2c(N3CCN(C)CC3)c(F)cc3c(=O)c(C(=O)O)cn1c23.O" in your reply. 92.4%

Return Activity (reported value) for this compound: "CC1(C)S[C@@H]2[C@H](NC(=O)[C@H](N)c3ccccc3)C(=O)N2[C@H]1C(=O)O" 100%

Using the record for "CC1(C)S[C@@H]2[C@H](NC(=O)Cc3ccccc3)C(=O)N2[C@H]1C(=O)O" , state its measured Activity. 100%

Give the reported Activity for this compound. "CCC[C@@H]1C[C@@H](C(=O)N[C@@H]([C@H]2O[C@H](SC)[C@H](O)[C@@H](O)[C@H]2O)[C@H](C)Cl)N(C)C1" 98.5%

Look up and state reported Activity for "CN[C@H](CC(C)C)C(=O)N[C@H]1C(=O)N[C@@H](CC(N)=O)C(=O)N[C@H]2C(=O)N[C@H]3C(=O)N[C@H](C(=O)N[C@H](C(=O)O)c4cc(O)cc(O)c4-c4cc3ccc4O)[C@H](O)c3ccc(c(Cl)c3)Oc3cc2cc(c3O[C@@H]2O[C@H](CO)[C@@H](O)[C@H](O)[C@H]2O[C@H]2C[C@](C)(N)[C@H](O)[C@H](C)O2)Oc2ccc(cc2Cl)[C@H]1O" 100%

---

Test system: Streptococcus pyogenes
Assay: Antimicrobial activity against ciprofloxacin-nonsusceptible Streptococcus pyogenes isolates by agar dilution method
Assay type: functional
# key: entry, value: MIC50

Guide cases for MIC50, answers given:
Compound structure string: CN(C)[C@@H]1C(O)=C(C(N)=O)C(=O)[C@@]2(O)C(O)=C3C(=O)c4c(O)cccc4[C@@](C)(O)[C@H]3C[C@@H]12
Assay value: ≤ 2 µg/mL
//
Compound structure string: CCC[C@@H]1C[C@@H](C(=O)N[C@@H]([C@H]2O[C@H](SC)[C@H](O)[C@@H](O)[C@H]2O)[C@H](C)Cl)N(C)C1
Assay value: ≤ 0.25 µg/mL
//
Compound structure string: CN[C@H](CC(C)C)C(=O)N[C@H]1C(=O)N[C@@H](CC(N)=O)C(=O)N[C@H]2C(=O)N[C@H]3C(=O)N[C@H](C(=O)N[C@H](C(=O)O)c4cc(O)cc(O)c4-c4cc3ccc4O)[C@H](O)c3ccc(c(Cl)c3)Oc3cc2cc(c3O[C@@H]2O[C@H](CO)[C@@H](O)[C@H](O)[C@H]2O[C@H]2C[C@](C)(N)[C@H](O)[C@H](C)O2)Oc2ccc(cc2Cl)[C@H]1O
Assay value: 0.5 µg/mL
//
Compound structure string: CC1(C)S[C@@H]2[C@H](NC(=O)[C@H](N)c3ccccc3)C(=O)N2[C@H]1C(=O)O
Assay value: ≤ 0.25 µg/mL

Next compound, please.
Let me know recorded MIC50 for "CO/N=C(\C(=O)N[C@@H]1C(=O)N2C(C(=O)O)=C(COC(C)=O)CS[C@H]12)c1csc(N)n1" , thanks. ≤ 0.06 µg/mL
